// reported Ki for each item listed
Target protein (sequence): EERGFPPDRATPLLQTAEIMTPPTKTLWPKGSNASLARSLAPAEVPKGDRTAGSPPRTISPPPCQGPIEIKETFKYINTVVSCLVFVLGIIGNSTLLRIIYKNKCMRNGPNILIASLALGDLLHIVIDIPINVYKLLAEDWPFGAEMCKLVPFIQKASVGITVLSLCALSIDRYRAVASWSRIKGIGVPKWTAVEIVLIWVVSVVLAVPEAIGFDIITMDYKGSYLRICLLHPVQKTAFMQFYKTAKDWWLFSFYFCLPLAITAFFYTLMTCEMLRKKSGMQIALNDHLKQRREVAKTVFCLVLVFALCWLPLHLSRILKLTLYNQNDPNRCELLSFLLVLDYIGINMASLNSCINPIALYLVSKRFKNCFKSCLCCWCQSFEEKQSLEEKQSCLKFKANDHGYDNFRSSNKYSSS

[
  {
    "COMPOUND": "CCCC[C@@H](NC(=O)[C@@H](Cc1cn(C(=O)OC)c2ccccc12)NC(=O)[C@H](CC(C)(C)C)NC(=O)N1[C@H](C)CCC[C@@H]1C)C(=O)O [BQ788]",
    "ASSAY_READOUT": "Ki",
    "RECORDED_VALUE": "17.8 nM"
  }
]

I would be grateful if you could share the reported Ki for CCCOc1ccc([C@H]2[C@H](C(=O)O)[C@@H](c3ccc4c(c3)OCO4)CN2CC(=O)Nc2c(CC)cccc2CC)cc1 [A192621] .
8.8 nM

---

- TARGET_OR_TEST_SYSTEM: ETBR (Homo sapiens)
// reported pIC50 for each item listed
Worth noting: pIC50 values are minus log10 of concentrations stated in mol/L.

I would be grateful if you could share the reported pIC50 for CCCC[C@@H](NC(=O)[C@@H](Cc1cn(C(=O)OC)c2ccccc12)NC(=O)[C@H](CC(C)(C)C)NC(=O)N1[C@H](C)CCC[C@@H]1C)C(=O)O [BQ788] .
8.92

For CCCOc1ccc([C@H]2[C@H](C(=O)O)[C@@H](c3ccc4c(c3)OCO4)CN2CC(=O)Nc2c(CC)cccc2CC)cc1 [A192621] then?
8.35

Values were extracted from patent US20200268829A1.
